# ASSAY PROCEDURE: BET inhibitor-based combinations targeting novel dependencies in MECOM-rearranged (r) AML: MV-4-11 cell line (AID 2202233); note: nearly all actives have a fitted effect of over 45% in size
# STATED CONDITIONS: MV-4-11 AML viability, CellTiter-Glo luminescence, 48 h; series mostly up to 46 µM
Records with an inconclusive call do not appear. Activity calls are given as the source filed them. Calls come from the whole dose curve; as a rule, active = well fitted inhibition curve with a large enough effect; inconclusive = small, poorly fitted or top-dose-only effect; inactive = no such curve, though single readings can be large or run the other way. Residues, ends and D or L forms follow the SMILES beside them.
Hi! Could you answer with just one of these? active, inactive

Use the examples below as a reference point.
[[record]]
compound = "CCOC(=O)c1ccc(C#Cc2ccc3c(c2)C(C)(C)CCS3)nc1"
class_name = "active"

[[record]]
compound = "C=C1CC[C@@H]2[C@](C)(CO)[C@H](O)CC[C@@]2(C)[C@@H]1C/C=C1/C(=O)OC[C@H]1O"
class_name = "active"

[[record]]
compound = "CC(C)Cc1ccc([C@@H](C)C(=O)NS(C)(=O)=O)cc1"
class_name = "inactive"

[[record]]
compound = "N[C@@H](CCC(=O)O)C(=O)N[C@@H](Cc1c[nH]c2ccccc12)C(=O)O (H-Glu-Trp-OH)"
class_name = "inactive"

[[record]]
compound = "Nc1ncnc2nc(-c3ccc(N4CCOCC4)nc3)cc(-c3cccc(Br)c3)c12"
class_name = "active"

[[record]]
compound = "O=C(c1ccc(/C=C/c2n[nH]c3ccccc23)cc1)N1CCNCC1"
class_name = "active"

[[record]]
compound = "C=C(c1ccc(C(=O)O)cc1)c1cc2c(cc1C)C(C)(C)CCC2(C)C"
class_name = "active"

[[record]]
compound = "Cc1ccc(NC(=O)c2ccc3c(c2)OCCO3)cc1NC(=O)c1ccc2nc(OCCN3CCCC3)ccc2c1"
class_name = "active"

[[record]]
compound = "CC(C)(O)C1CCC(Nc2ccc3ncc(-c4cccc(C(F)(F)F)c4)n3n2)CC1 (stereo not drawn)"
class_name = "active"

[[record]]
compound = "C[C@H]1[C@@H](OC(=O)CCC(=O)O)O[C@@H]2O[C@@]3(C)CC[C@@H]4[C@H](C)CC[C@@H]1[C@@]24OO3"
class_name = "active"


*Q* # lookup: test call for N#Cc1ccc(C(c2ccc(C#N)cc2)n2cncn2)cc1
*A* inactive

*Q* # lookup: test call for COc1cc([C@@H]2c3cc4c(cc3[C@@H](O[C@@H]3O[C@@H]5CO[C@@H](C)O[C@@H]5[C@H](O)[C@@H]3O)[C@H]3COC(=O)[C@H]23)OCO4)cc(OC)c1O
*A* active

*Q* # lookup: test call for CC[C@H]1OC(=O)[C@H](C)[C@@H](O[C@H]2C[C@@](C)(OC)[C@@H](O)[C@H](C)O2)[C@H](C)[C@@H](O[C@@H]2O[C@H](C)C[C@H](N(C)C)[C@H]2O)[C@](C)(O)C[C@@H](C)C(=O)[C@H](C)[C@@H](O)[C@]1(C)O
*A* inactive

*Q* # lookup: test call for COc1ccc(-c2ccc3c(N4CCOC[C@@H]4C)nc(N4CCOC[C@@H]4C)nc3n2)cc1CO
*A* active

*Q* # lookup: test call for Nc1cccc2c1CN([C@H]1CCC(=O)NC1=O)C2=O
*A* inactive

*Q* # lookup: test call for O=C(Nc1cc(Oc2cc(F)c(NC(=O)C3(C(=O)Nc4ccc(F)cc4)CC3)cc2F)ccn1)C1CC1
*A* active

*Q* # lookup: test call for O=C1OC2(CCC(C(=O)Nc3ccn(-c4ccccc4F)n3)CC2)c2cnccc21 (stereo not drawn)
*A* active

*Q* # lookup: test call for CC[C@H](CC[C@@H](C)[C@H]1CC[C@H]2[C@@H]3CC=C4C[C@@H](O)CC[C@]4(C)[C@H]3CC[C@]12C)C(C)C
*A* inactive

*Q* # lookup: test call for COCCOC(=O)C1=C(C)NC2=C(C(=O)CC(c3ccccc3OC)C2)C1c1cccc(O)c1 (stereo not drawn)
*A* active

*Q* # lookup: test call for O=C(NCc1ccccc1)c1csc(Nc2ccncn2)n1
*A* active

Hey, just so you know, these numbers are from PubChem BioAssay (NCATS).
